system: mice; assay: Acute toxicity (LD50), mice, intraperitoneal route, Log-Probits method of Miller and Tainter; type: in vivo
observable: DL0 (IP)

>>> measured("CC1CCCC(=Cc2cc3c(cc2Cl)OCO3)C1=O (stereo not drawn)")
"≥ 2000 mg/kg"
>>> measured("CC1CC(=Cc2ccc3c(c2)OCO3)C(=O)C(=Cc2ccc3c(c2)OCO3)C1 (stereo not drawn)")
"≥ 2000 mg/kg"
>>> measured("O=C1C(=Cc2ccc3c(c2)OCO3)Cc2ccccc21")
"≥ 2000 mg/kg"
>>> measured("CN1CC(=Cc2ccc3c(c2)OCO3)C(O)C(=Cc2ccc3c(c2)OCO3)C1 (stereo not drawn)")
"≥ 2000 mg/kg"
>>> measured("OC1C(=Cc2ccc3c(c2)OCO3)CCc2ccccc21 (stereo not drawn)")
"> 200 mg/kg"
>>> measured("O=C1C(=Cc2ccc3c(c2)OCO3)CCc2ccccc21")
"≥ 2000 mg/kg"

----------
assay: Acute toxicity (LD50), mice, intraperitoneal route, Log-Probits method of Miller and Tainter; format: in vivo; settings: mouse, in vivo, ip
observable: LD50 (mg/kg)

>>> measured("O=C1CCCC1=Cc1ccc2c(c1)OCO2 [compound 1386]")
1300
>>> measured("CC1CCC(O)C(=Cc2ccc3c(c2)OCO3)C1 (stereo not shown) [compound 1446]")
1500
>>> measured("CN(C)CC1(C)CCCC(=Cc2ccc3c(c2)OCO3)C1O (stereo not shown) [compound 1349]")
100
>>> measured("OC1CCCC1=Cc1ccc2c(c1)OCO2 (stereo not shown) [compound 1387]")
100
>>> measured("COc1ccc(C=C2CCCC(C)C2O)c(OC)c1OC (stereo not shown) [compound 1271]")
500
>>> measured("CC1CCCC(=Cc2cc3c(cc2Cl)OCO3)C1O (stereo not shown) [compound 1275]")
2000
>>> measured("COc1cc(C=C2CCCC(C)C2=O)cc(OC)c1OC (stereo not shown) [compound 1268]")
1000
>>> measured("OC1C(=Cc2ccc3c(c2)OCO3)CCCC1CN1CCOCC1 (stereo not shown) [compound 1347]")
1000
>>> measured("CC1CCCC(=Cc2ccc3c(c2)OCO3)C1=O (stereo not shown) [compound 993]")
2000
>>> measured("COc1ccc(C=C2CCCC(C)C2=O)cc1OC (stereo not shown) [compound 1266]")
700

----------
experiment: Acute toxicity (LD50), mice, intraperitoneal route, Log-Probits method of Miller and Tainter; assay type: in vivo; settings: mouse, in vivo, ip
Output 1 (yes) for records whose LD50 is lower than 1000 mg/kg, 0 (no) for records at or above 1000 mg/kg.

>>> category_label("CC1CCC(=O)C(=Cc2ccc3c(c2)OCO3)C1 (stereo not shown)")
"0 (no)"
>>> category_label("COc1ccc(C=C2CCCC(C)C2O)cc1OC (stereo not shown)")
"1 (yes)"
>>> category_label("CN1CCN(CC2(C)CCCC(=Cc3ccc4c(c3)OCO4)C2=O)CC1 (stereo not shown)")
"1 (yes)"
>>> category_label("OC1C(=Cc2ccc3c(c2)OCO3)Cc2ccccc21 (stereo not shown)")
"0 (no)"
>>> category_label("COc1cc(C=C2CCCC(C)C2O)cc(OC)c1OC (stereo not shown)")
"0 (no)"
